Recorded below: pIC50, system human Gal-12 (Homo sapiens).
Notebook: values listed as pIC50 are -log10 of the concentration (mol/L).

// CC(=O)NC1C(O)OC(CO)C(OC2OC(CO)C(O)C(OC3(C(=O)O)CC(O)C(NC(C)=O)C(C(O)C(O)CO)O3)C2O)C1O (centres unmarked) [3’-SLacNAc, 3’-sialyl-N-acetyllactosamine] : pIC50 value = 2.01

Field pIC50 (entry CC(=O)NC1C(O)OC(CO)C(OC2OC(CO)C(O)C(O)C2O)C1O (centres unmarked) [LacNAc, N-acetyllactosamine] ) reads 1.44

GET /value?item= CC(=O)NC1C(O)CC(OCC2OC(OC3C(CO)OC(O)C(O)C3O)C(O)C(O)C2O)(C(=O)O)OC1C(O)C(O)CO (centres unmarked) [6’-SL, 6′-sialyllactose] &field=pIC50 returns 1.27

Item: CC(=O)NC1C(O)OC(CO)C(OC2OC(CO)C(O)C(O)C2O)C1OC1OC(C)C(O)C(O)C1O (centres unmarked) [Le^X, Lewis X trisaccharide] | pIC50: 2.70

Lab note: measured pIC50 of CC(=O)NC1C(OC2C(O)C(CO)OC(OC3C(O)C(CO)OC(O)C3NC(C)=O)C2OC2OC(C)C(O)C(O)C2O)OC(CO)C(O)C1O (centres unmarked) [BGA1, blood group A antigen 1] was 1.52

# pIC50 (molecule: CC(=O)NC1C(O)CC(OC2C(O)C(CO)OC(OC3C(CO)OC(O)C(O)C3O)C2O)(C(=O)O)OC1C(O)C(O)CO (centres unmarked) [3’-SL, 3′-sialyllactose] ) is 1.95

# pIC50 of CC1OC(OC2C(OC3C(CO)OC(O)C(O)C3O)OC(CO)C(O)C2O)C(O)C(O)C1O (centres unmarked) [2’-FL, 2′-fucosyllactose] = 1.20

Please fill in: pIC50 reported for CC(=O)NC1C(OC2C(O)C(CO)OC(OC3C(CO)OC(O)C(O)C3O)C2OC2OC(C)C(O)C(O)C2O)OC(CO)C(O)C1O (centres unmarked) [BGA6, blood group A antigen tetraose 6] = 1.57

Recorded pIC50 (molecule CC(=O)NC1C(OC2C(O)C(CO)OC(OC3C(CO)OC(O)C(O)C3O)C2O)OC(CO)C(OC2OC(CO)C(O)C(O)C2O)C1O (centres unmarked) [LNnT, lacto-N-neotetraose] ): 1.53

The measured pIC50 associated with CC(=O)NC1C(O)OC(CO)C(OC2OC(CO)C(O)C(OC3OC(CO)C(O)C(O)C3NC(C)=O)C2OC2OC(C)C(O)C(O)C2O)C1O (centres unmarked) [BGA2, blood group A antigen 2] reads 1.60

Form field pIC50, entry CC(=O)NC1C(OC2C(O)C(CO)OC(OC3C(CO)OC(O)C(O)C3OC3OC(C)C(O)C(O)C3O)C2O)OC(CO)C(OC2OC(C)C(O)C(O)C2O)C1OC1OC(CO)C(O)C(O)C1O (centres unmarked) [LAH, Lewis A antigen hexaose] : 1.29

----------
SYSTEM: human Gal-12 (Homo sapiens, UniProt Q96DT0)
Sequence (Q96DT0 1-336): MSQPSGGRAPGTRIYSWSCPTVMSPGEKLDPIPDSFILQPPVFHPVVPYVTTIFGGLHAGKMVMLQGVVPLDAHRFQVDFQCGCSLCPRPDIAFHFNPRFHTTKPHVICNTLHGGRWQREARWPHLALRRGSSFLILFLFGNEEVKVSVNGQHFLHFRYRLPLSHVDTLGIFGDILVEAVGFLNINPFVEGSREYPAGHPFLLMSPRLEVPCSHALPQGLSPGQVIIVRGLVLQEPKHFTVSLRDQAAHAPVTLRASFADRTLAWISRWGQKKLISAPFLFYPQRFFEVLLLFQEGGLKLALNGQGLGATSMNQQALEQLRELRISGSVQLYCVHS
PROPERTY: pKd
// returns pKd (minus log10 of molar concentration), number only

Value of measured pKd for the entry CC(=O)NC1C(O)OC(CO)C(OC2OC(CO)C(O)C(O)C2O)C1OC1OC(C)C(O)C(O)C1O (centres unmarked) [Le^X, Lewis X trisaccharide] : 4.10

Please fill in: pKd reported for CC(=O)NC1C(O)CC(OC2C(O)C(CO)OC(OC3C(CO)OC(O)C(O)C3OC3OC(C)C(O)C(O)C3O)C2O)(C(=O)O)OC1C(O)C(O)CO (centres unmarked) = 3.82
